pIC50, Cholinesterase (Homo sapiens, UniProt P06276), per-entry values.
pIC50: −log10 of the molar value.

| Compound | pIC50 |
| --- | --- |
| Cc1cccc2c1C(=O)[C@@H]1[C@H]3CCCN3CC[C@H]1O2 (racemic) | 4.46 |
| Cc1cccc2c1C(=O)[C@@H]1[C@H]3CCC[N@@+]3([O-])CC[C@H]1O2 (racemic) | < 4.30 |
| Cc1cccc2c1C(=O)[C@@H]1[C@H]3CCC(=O)N3CC[C@H]1O2 | < 4.30 |
| Cc1cccc2c1C(=O)C1=C3CCCN3CCC1O2 (racemic) | 4.41 |
| Cc1cccc2c1C(=O)[C@@H]1[C@H]3CCC[N@+]3([O-])CC[C@H]1O2 (racemic) | < 4.30 |
| Cc1cccc2c1C(=O)[C@H]1[C@H](CCN3C(=O)CC[C@H]13)O2 (racemic) | < 4.30 |
| Cc1cccc2c1C(=O)[C@H]1[C@@H](CC[N@@+]3([O-])CCC[C@@H]13)O2 (racemic) | 4.54 |
| Cc1cccc2c1C(=O)CC(CCCNCCCO)O2 (racemic) | < 4.30 |
| Cc1cccc2c1C(=O)[C@@H]1[C@H](CCN3C(=O)CC[C@@H]13)O2 | < 4.30 |
| Cc1cccc(O)c1C(=O)C[C@@H]1CC[C@@H]2[C@H]3C(=O)c4c(C)cccc4O[C@H]3CCN12 | < 4.30 |
| Cc1cccc2c1C(=O)[C@H]1[C@H](CCN3CCC[C@H]13)O2 (racemic) | < 4.30 |
| Cc1cccc(O)c1C(=O)C[C@@H]1CC[C@@H]2[C@H]3C(=O)c4c(C)cccc4O[C@@H]3CCN12 (racemic) | < 4.30 |
| Cc1cccc(O)c1C(=O)C[C@H]1CC[C@H]2[C@@H]3C(=O)c4c(C)cccc4O[C@@H]3CCN12 | < 4.30 |
| Cc1cccc(O)c1C(=O)CC1CCCN1CCCO (racemic) | < 4.30 |
